- System: A498 renal
Your response should consist of one outcome taken from active, inactive

Please share the test call associated with COc1cc2c(cc1OCCCCNC(=O)c1cc3ccccc3[nH]1)N=CC1CCCN1C2=O (stereo not given) .
inactive

What about C=CCN1C(=O)/C(=c2\sc3n(c2=O)C2C(NN=3)N(CC)C(=O)N2CC)c2ccccc21 (stereo not given) ?
active

Moving on to the next compound: CC/C(=N\Nc1nc2ccccc2n1C)c1ccccn1
active

Then O=C1NC(=NCC(CO)c2ccccc2)S/C1=C\c1ccc2ncccc2c1 (stereo not given) ?
inactive

Field entry: Cc1cccc(CN(C)c2ccc(CO)c(Cl)c2)c1
active

Next entry: N/C(=N\O)c1ncc(-c2ccc(C(F)(F)F)cc2)c(NC2CCCCCC2)n1
inactive

Try the compound CCN1CCC[C@H]1c1cc(O)c2c(c1OC)C[C@H]1C[C@H]3[C@H](N)C(=O)C(C(N)=O)=C(O)[C@@]3(O)C(=O)C1=C2O
active

Entry O=C1Cc2cc(CCn3ccnc3)c(Cl)cc2N1 please
inactive

Would you mind doing CCCCCCN(CCCCCC)CCCNc1nccc2ccccc12 as well?
inactive

Thanks! And O=C(Nc1cccc(Cl)c1)Nc1cccc(Cl)c1 ?
inactive
